Organism: Rattus norvegicus
Experiment: Open TG-GATES - Regimen: Single
Type: toxicity, organism-based, Sprague-Dawley
Set-up: regimen Single, gender Male, age 6 weeks
Conditions: in vivo, po, 1000 mg/kg, 6 h, tissue Plasma, route gavage, dose level High
Reported IP values are given for each entry in this list.
Please respond with the number in mg/dL and leave the unit unwritten.

| chemical_structure | quantity | measurement |
| --- | --- | --- |
| O=C(OC[C@H]1O[C@@H](OC(=O)c2cc(O)c(O)c(OC(=O)c3cc(O)c(O)c(O)c3)c2)[C@H](OC(=O)c2cc(O)c(O)c(OC(=O)c3cc(O)c(O)c(O)c3)c2)[C@@H](OC(=O)c2cc(O)c(O)c(OC(=O)c3cc(O)c(O)c(O)c3)c2)[C@@H]1OC(=O)c1cc(O)c(O)c(OC(=O)c2cc(O)c(O)c(O)c2)c1)c1cc(O)c(O)c(OC(=O)c2cc(O)c(O)c(O)c2)c1 | IP | 11 |

QUERY: Which IP is listed for CNC(=C[N+](=O)[O-])NCCSCc1ccc(CN(C)C)o1 ?
RESULT: 8.3

QUERY: Entry to check: CN/C(=N/CCSCc1nc[nH]c1C)NC#N
RESULT: 9.8

QUERY: Entry to check: Cc1nnc2n1-c1ccc(Cl)cc1C(c1ccccc1Cl)=NC2
RESULT: 10.9

QUERY: Entry to check: COC(=O)C1=C(C)NC(C)=C(C(=O)OC)C1c1ccccc1[N+](=O)[O-]
RESULT: 11

Reference source: ChEMBL document CHEMBL3885861
